Below, each entry is listed alongside its reported ED50.
# target: kappa receptor (Mus musculus)
# Construct: Five CF-1 male mice (Charles River, Portage, Mich.); from tissue; host or cells: whole living CF-1 male mice (in vivo)
# Sequence (P33534 whole entry): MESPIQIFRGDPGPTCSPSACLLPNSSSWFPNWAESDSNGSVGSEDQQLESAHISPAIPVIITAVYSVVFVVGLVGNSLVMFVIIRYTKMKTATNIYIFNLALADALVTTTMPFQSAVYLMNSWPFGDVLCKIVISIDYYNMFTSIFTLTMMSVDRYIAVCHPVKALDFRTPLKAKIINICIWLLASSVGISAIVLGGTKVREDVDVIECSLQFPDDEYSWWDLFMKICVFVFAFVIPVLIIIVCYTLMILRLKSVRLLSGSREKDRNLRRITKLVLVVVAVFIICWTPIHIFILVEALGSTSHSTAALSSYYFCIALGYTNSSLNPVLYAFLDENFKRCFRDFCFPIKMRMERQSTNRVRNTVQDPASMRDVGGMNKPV
# assay-overview: in vivo
# Set-up: species or system CF-1 male mice
# test-conditions: sc, read-out: Kappa AD50
Structures can show the parent of a compound that is named as a salt.
measurement-type: ED50

compound | measurement-type | observed-value
C[C@H]1CN(CCC(=O)C2CCCC2)CC[C@@]1(C)c1cccc(O)c1 (relative stereo) [Example 17, hydrochloride] | ED50 | 0.19 mg/kg
C[C@H]1CN(CCc2ccccc2)CC[C@@]1(C)c1cccc(O)c1 (relative stereo) [Compound D, hydrochloride, reference compound] | ED50 | 1.38 mg/kg
C[C@H]1CN(CCC2C=CCC2)CC[C@@]1(C)c1cccc(O)c1 (relative stereo) [Example 7, hydrochloride] | ED50 | 0.12 mg/kg
